All figures here come from paper PMC9865188.

assay: Pharmacokinetic study in Sprague Dawley rats (oral gavage); format: in vivo; conditions: male, Sprague Dawley, rat, plasma, oral, Etoposide C15min, group F: etoposide 20 mg/kg + zosuquidar 6.3 mg/kg + 10% v/v polysorbate 20 oral
Assay Endpoint: concentration at 15 min (ng/mL)
Number in ng/mL, nothing else.

Memo: COc1cc([C@@H]2c3cc4c(cc3[C@@H](O[C@@H]3O[C@@H]5CO[C@@H](C)O[C@H]5[C@H](O)[C@H]3O)[C@H]3COC(=O)[C@H]23)OCO4)cc(OC)c1O [etoposide] , reported concentration at 15 min: 579

---

experiment: Pharmacokinetic study in Sprague Dawley rats (oral gavage); format: in vivo; conditions: male, Sprague Dawley, rat, plasma, po, 20 mg/kg, Etoposide Cmax, group F: etoposide 20 mg/kg + zosuquidar 6.3 mg/kg + 10% v/v polysorbate 20 oral
Assay Endpoint: Cmax
Please state the value followed by its unit.

Quick note, Cmax for COc1cc([C@@H]2c3cc4c(cc3[C@@H](O[C@@H]3O[C@@H]5CO[C@@H](C)O[C@H]5[C@H](O)[C@H]3O)[C@H]3COC(=O)[C@H]23)OCO4)cc(OC)c1O [etoposide] landed at 1020 ng/mL
